# Test system: porcine aortic smooth muscle cells
# ASSAY_INFO: inhibition of smooth muscle cell proliferation (3H thymidine, serum or PDGF stimulated)
# Type: cell-based
# CONDITION_PARAMETERS: Sus scrofa, serum-stimulated, 24-36 h at 37° C., read-out: Porcine Smooth Muscle Cell Antiproliferation IC50 or % Inhibition at x Concentration, Serum
pIC50: −log10 of the molar value.
Below, each entry is listed with its recorded pIC50.
OBSERVATION_TYPE: pIC50

[
  {
    "STRUCTURE_SMILES": "N#CC(=Cc1ccc[nH]1)c1cccnc1",
    "EXPERIMENTAL_VALUE": 4.04
  },
  {
    "STRUCTURE_SMILES": "N#C/C(=C\\c1ccncc1)c1cccnc1",
    "EXPERIMENTAL_VALUE": 5.94
  },
  {
    "STRUCTURE_SMILES": "CCn1c2ccccc2c2cc(/C=C(\\C#N)c3cccnc3)ccc21",
    "EXPERIMENTAL_VALUE": 6.45
  },
  {
    "STRUCTURE_SMILES": "N#CC(=Cc1cccnc1)c1cccnc1",
    "EXPERIMENTAL_VALUE": 4.02
  },
  {
    "STRUCTURE_SMILES": "N#CC(=Cc1c[nH]c2ncccc12)c1cccnc1",
    "EXPERIMENTAL_VALUE": 5.93
  },
  {
    "STRUCTURE_SMILES": "N#CC(=Cc1ccccn1)c1cccnc1",
    "EXPERIMENTAL_VALUE": 4.32
  },
  {
    "STRUCTURE_SMILES": "N#C/C(=C\\c1ccc2c(c1)OCCO2)c1c[nH]c2ncccc12",
    "EXPERIMENTAL_VALUE": 5.91
  },
  {
    "STRUCTURE_SMILES": "N#CC(=Cc1ccnc2ccccc12)c1cccnc1",
    "EXPERIMENTAL_VALUE": 4.09
  }
]

----------
# ASSAY_INFO: cytotoxicity, modified MTT assay (% viable cells)
# Assay type: cell-based, porcine
# CONDITION_PARAMETERS: pig, smooth muscle cells; fresh medium without serum, 24 h at 37° C.; no drug = 100% viable

[
  {
    "STRUCTURE_SMILES": "N#CC(=Cc1ccc[nH]1)c1cccnc1",
    "viability at 24 h (%)": 84
  },
  {
    "STRUCTURE_SMILES": "N#CC(=Cc1c[nH]c2ncccc12)c1cccnc1",
    "viability at 24 h (%)": 100
  },
  {
    "STRUCTURE_SMILES": "N#CC(=Cc1ccc2c(c1)OCCO2)c1cccnc1",
    "viability at 24 h (%)": 86
  },
  {
    "STRUCTURE_SMILES": "N#C/C(=C\\c1ccc2c(c1)OCCO2)c1c[nH]c2ncccc12",
    "viability at 24 h (%)": 100
  },
  {
    "STRUCTURE_SMILES": "N#C/C(=C\\c1ccncc1)c1cccnc1",
    "viability at 24 h (%)": 100
  },
  {
    "STRUCTURE_SMILES": "N#CC(=Cc1ccccn1)c1cccnc1",
    "viability at 24 h (%)": 92
  },
  {
    "STRUCTURE_SMILES": "CCn1c2ccccc2c2cc(/C=C(\\C#N)c3cccnc3)ccc21",
    "viability at 24 h (%)": 100
  }
]
